tested on: MDA-MB-468 breast; experiment: NCI tumour cell line growth inhibition, 48 h

compound	TGI
CCOC(=O)c1ccc2c(c1)[n+](=O)c(C(=O)C1CCCS1)c(C(F)(F)F)n2[O-] (stereo not given)	0.967 µM
C=CCn1c(SCC(=O)Nc2ccc(C(=O)/C=C/c3cc(OC)c(OC)c(OC)c3)cc2)nnc1-c1ccc(Cl)cc1	26.6 µM
O=C(/C=C/c1cc2ccccc2[nH]c1=O)c1ccc(Cl)cc1	35.2 µM
COc1cc(/C=C/C(=O)Nc2ccc3c(c2)/C(=C\c2cccn2C)C(=O)N3)cc(OC)c1OC	25.2 µM
CC1(C)CCC2(CC1)N[C@@H](C(=O)N[C@@H]1CC[C@@H](C(N)=O)OC1)[C@H](c1ccnc(Cl)c1F)[C@]21C(=O)Nc2cc(Cl)ccc21	5.63 µM
CCOc1ccc(C(=O)Nc2ncc(Cc3ccc(F)cc3)s2)cc1	> 100 µM
COC1=CC(=O)c2c(ccc3ncnc(N)c23)C1=O	2.77 µM
O=C(Nc1cccc(-n2ccc3c(NC(=O)c4ccccc4)nccc32)c1)Nc1ccc(Cl)c(C(F)(F)F)c1	3.36 µM
Cc1c([C@H](C(Cl)Cl)[C@H](O)[C@H]2C[C@H](C)C(=O)O2)ccc2c1C(=O)[C@H]1[C@H]2C[C@@H](Br)[C@@]23O[C@@H](CO[C@H]2O)CC13C (stereo not given in full)	0.922 µM
COc1ncc(-c2ccc3nccc(C#CCCCCC(=O)O)c3c2)cc1NS(=O)(=O)c1ccc(F)cc1F	1.9 µM
Fc1ccccc1CNc1nc(SCCN2CCOCC2)nc2c1cnn2CC(Cl)c1ccc(Br)cc1 (stereo not given)	7 µM
C=C1C(=O)O[C@H]2[C@H]1CC/C(CNC(=O)c1cccc3ccccc13)=C\CC[C@@]1(C)O[C@@H]21	4.24 µM
C=C1c2c(C)nn(-c3ccc(OC)cc3)c2N(C)C23C[C@@H]1C1(C)c4c(C)nn(-c5ccc(OC)cc5)c4N(C)C(C)(C[C@H]12)C3 (stereo not given in full)	12.8 µM
N#Cc1c(-c2ccc(Cl)cc2)csc1NC(=O)Nc1ccc(Cl)c(C(F)(F)F)c1	1.51 µM
O=[N+]([O-])c1ccc(C(Br)c2ccc([N+](=O)[O-])cc2)cc1	25.9 µM
COc1cc(C(=O)c2c(-c3ccccc3)oc3c(OC)cccc23)cc(OC)c1O	7.22 µM
CN(C)CCn1c2ccccc2c2nc3ccc([N+](=O)[O-])cc3nc21	2.27 µM
Brc1ccc(SCN(CSc2ccc(Br)cc2)Cc2ccccc2)cc1	30.6 µM
C#Cc1ccc(NC(=O)c2ccc(/C=C/C(=O)c3nccn3C)cc2)c(F)c1	4.42 µM
COc1cccc2c1C(=O)c1c(O)c3c(c(O)c1C2=O)CC(O)(/C(C)=N/NC(=O)CCCCC(=O)N/N=C(\C)C1(O)Cc2c(O)c4c(c(O)c2C(OC2CC(N)C(O)C(C)O2)C1)C(=O)c1c(OC)cccc1C4=O)CC3OC1CC(N)C(O)C(C)O1 (stereo not given)	0.251 µM
